The entries below are paired with their reported binding affinity ratio (IC50 standard/IC50 test).
- System: HLA-B*3501 (Human)
- Measurement Description: competition with 125I-labelled standard peptide for purified HLA, gel filtration
Measured Parameter: binding affinity ratio (IC50 standard/IC50 test)

Binder	Measured Result
QPEKGGRKPA (modifications not checked)	0.0001
QPEYDLELI (modifications not checked)	0.0002
LPGCSFSIFL (modifications not checked)	0.0009
NPSVAATLGF (modifications not checked)	0.0001
PPPSWDQMW (modifications not checked)	0.0002
SPGEINRVA (modifications not checked)	0.0001
